Measured Ki by item
- measured on: UniProt:Q16790

| structure smiles | Ki |
| --- | --- |
| Cc1ccc(N/C=C/C(=O)c2sc3nc4ccccc4n3c2C)cc1S(N)(=O)=O | 6.2 nM |
| Cc1c(C(=O)/C=C/NNC(=O)c2ccc(S(N)(=O)=O)cc2)sc2nc3ccccc3n12 | 9.7 nM |
| Cc1c(C(=O)/C=C/Nc2ccc(C(=O)O)cc2)sc2nc3ccccc3n12 | 830 nM |
| Cc1c(C(=O)/C=C/Nc2ccc(S(N)(=O)=O)cc2)sc2nc3ccccc3n12 | 36.6 nM |
| Cc1c(C(=O)/C=C/Nc2cccc(C(=O)O)c2)sc2nc3ccccc3n12 | 14500 nM |
| Cc1c(C(=O)/C=C/Nc2cccc(S(N)(=O)=O)c2)sc2nc3ccccc3n12 | 813 nM |
| Cc1c(NC(=O)NNC(=O)c2ccc(S(N)(=O)=O)cc2)sc2nc3ccccc3n12 | 53.1 nM |
| C/C(=N\Nc1ccc(S(N)(=O)=O)cc1)c1sc2nc3ccccc3n2c1C | 73.1 nM |
| C/C(=N\NC(=O)c1ccc(S(N)(=O)=O)cc1)c1sc2nc3ccccc3n2c1C | 5.5 nM |
| Cc1c(C(=O)/C=C/NCc2ccc(S(N)(=O)=O)cc2)sc2nc3ccccc3n12 | 55.9 nM |
